- MEASUREMENT CONTEXT: in 1,4-dioxane, 295.65 K
MEASURE: solubility (mole fraction)
Please give only the number in your answer, with no unit.

Item under review: "Cc1cc(C(=O)O)ccc1[N+](=O)[O-]" . Reported solubility (mole fraction)?
0.0519

====

- MEASUREMENT CONTEXT: in ethanol, 303.15 K
MEASURE: solubility (mole fraction)
Please give only the number in your answer, with no unit.

Item under review: "Cc1cc(C(=O)O)ccc1[N+](=O)[O-]" . Reported solubility (mole fraction)?
0.0113

====

- MEASUREMENT CONTEXT: in isopropanol, 308.15 K
MEASURE: solubility (mole fraction)

Item under review: "Cc1cc(C(=O)O)ccc1[N+](=O)[O-]" . Reported solubility (mole fraction)?
0.0151

====

- MEASUREMENT CONTEXT: in acetonitrile, 290.65 K
MEASURE: solubility (mole fraction)
Please give only the number in your answer, with no unit.

Item under review: "Cc1cc(C(=O)O)ccc1[N+](=O)[O-]" . Reported solubility (mole fraction)?
0.00328

====

- MEASUREMENT CONTEXT: in ethyl acetate, 313.15 K
MEASURE: solubility (mole fraction)

Item under review: "Cc1cc(C(=O)O)ccc1[N+](=O)[O-]" . Reported solubility (mole fraction)?
0.0185

====

- MEASUREMENT CONTEXT: in ethyl acetate, 310.65 K
MEASURE: solubility (mole fraction)
Please give only the number in your answer, with no unit.

Item under review: "Cc1cc(C(=O)O)ccc1[N+](=O)[O-]" . Reported solubility (mole fraction)?
0.0175

====

- MEASUREMENT CONTEXT: in isopropanol, 305.65 K
MEASURE: solubility (mole fraction)
Please give only the number in your answer, with no unit.

Item under review: "Cc1cc(C(=O)O)ccc1[N+](=O)[O-]" . Reported solubility (mole fraction)?
0.0143

====

- MEASUREMENT CONTEXT: in isopropanol, 298.15 K
MEASURE: solubility (mole fraction)

Item under review: "Cc1cc(C(=O)O)ccc1[N+](=O)[O-]" . Reported solubility (mole fraction)?
0.0122

====

- MEASUREMENT CONTEXT: in acetonitrile, 293.15 K
MEASURE: solubility (mole fraction)
Please give only the number in your answer, with no unit.

Item under review: "Cc1cc(C(=O)O)ccc1[N+](=O)[O-]" . Reported solubility (mole fraction)?
0.00355

====

- MEASUREMENT CONTEXT: in ethyl acetate, 288.15 K
MEASURE: solubility (mole fraction)
Please give only the number in your answer, with no unit.

Item under review: "Cc1cc(C(=O)O)ccc1[N+](=O)[O-]" . Reported solubility (mole fraction)?
0.0116

====

- MEASUREMENT CONTEXT: in methanol, 300.65 K
MEASURE: solubility (mole fraction)
Please give only the number in your answer, with no unit.

Item under review: "Cc1cc(C(=O)O)ccc1[N+](=O)[O-]" . Reported solubility (mole fraction)?
0.0111

====

- MEASUREMENT CONTEXT: in ethanol, 288.15 K
MEASURE: solubility (mole fraction)
Please give only the number in your answer, with no unit.

Item under review: "Cc1cc(C(=O)O)ccc1[N+](=O)[O-]" . Reported solubility (mole fraction)?
0.00818

====

- MEASUREMENT CONTEXT: in n-propanol, 308.15 K
MEASURE: solubility (mole fraction)
Please give only the number in your answer, with no unit.

Item under review: "Cc1cc(C(=O)O)ccc1[N+](=O)[O-]" . Reported solubility (mole fraction)?
0.0129
